- Experimental details: Cytotoxicity assay (WST-1, microscopy) in HaCaT cells
- Type: cell-based, human
- Protocol conditions: human, HaCaT cells (keratinocytes); HaCaT, 200 μM peptide, 24 hours; read-out: survival rate (WST-1)
- Procedure: Cytotoxicity of the cell-penetrating multifunctional peptide according to Example 1 was checked. Specifically, HaCaT cells (human keratinocytes) were inoculated at a concentration of 1.5×10^4 cells/well into a 96-well plate and incubated for 24 hours. […] Herein, all the result values are expressed in mean±standard deviation. The analysis result of each item was statistically analyzed by a 2-way analysis of variance (ANOVA) test. […]

{"columns": ["Compound", "viability at 24 h, 200 µM (%)"],
 "data": [
  ["N=C(N)NCCC[C@H](NC(=O)[C@H](CCCNC(=N)N)NC(=O)[C@H](CCCNC(=N)N)NC(=O)[C@H](CCC(N)=O)NC(=O)[C@H](CCCNC(=N)N)NC(=O)[C@H](CCCNC(=N)N)NC(=O)[C@H](CCCCN)NC(=O)[C@H](CCCCN)NC(=O)[C@H](CCCNC(=N)N)NC(=O)CNC(=O)[C@@H](N)Cc1ccc(O)cc1)C(=O)O [TAT, YGRKRRQRRR, reference compound]", 102]
]}
